biological target: GNRHR (Homo sapiens); construct: purchased Promega (in-house HiBiT-GPCR construct library, NanoBRET); experiment: NanoBRET screen HiBiT-GNRHR in HEK293; type: binding; details: GNRHR; tracer 0.1μM
Sequence (P30968 whole entry): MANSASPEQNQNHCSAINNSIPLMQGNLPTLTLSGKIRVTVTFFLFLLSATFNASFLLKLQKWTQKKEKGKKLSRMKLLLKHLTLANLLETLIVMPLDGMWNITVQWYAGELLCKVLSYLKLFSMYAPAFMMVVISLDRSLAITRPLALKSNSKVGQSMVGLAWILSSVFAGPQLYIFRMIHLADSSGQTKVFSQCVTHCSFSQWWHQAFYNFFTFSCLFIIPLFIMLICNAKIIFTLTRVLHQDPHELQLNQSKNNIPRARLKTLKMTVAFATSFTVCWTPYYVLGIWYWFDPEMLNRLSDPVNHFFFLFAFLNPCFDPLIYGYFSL
Endpoint Name: NanoBRET Fold Response
Respond numerically, and do not add a unit to the figure.

Answered examples (5):
Specify NanoBRET Fold Response for `COc1ccccc1N1CCN(CCCCN2C(=O)c3ccc(CNC(=O)CCOCCOCCOCCOCCNC(=O)CCc4ccc5n4[B-](F)(F)[N+]4=C(c6ccc[nH]6)C=CC4=C5)cc3C2=O)CC1` and stop.
0.98

Find the measured NanoBRET Fold Response of `N#CN=C(NCCCOc1cccc(CN2CCCCC2)c1)NCCNC(=O)CCOCCOCCOCCOCCNC(=O)CCc1ccc2n1[B-](F)(F)[N+]1=C(c3ccc[nH]3)C=CC1=C2` and report it.
1.04

For the molecule O=C(CCc1ccc2n1[B-](F)(F)[N+]1=C(c3ccc[nH]3)C=CC1=C2)NCc1ccc(C(=O)NCCOCCC(=O)N[C@@H]2CC[C@@]3(O)[C@H]4Cc5ccc(O)c6c5[C@@]3(CCN4CC3CC3)[C@H]2O6)cc1 [Naltrexone-3-NB590] , report NanoBRET Fold Response.
0.90

# return recorded NanoBRET Fold Response for entry `Cc1cc2c(s1)Nc1ccccc1N=C2N1CCN(CCCNC(=O)CCOCCOCCOCCOCCNC(=O)CCc2ccc3n2[B-](F)(F)[N+]2=C(c4ccc[nH]4)C=CC2=C3)CC1`
1.02

Item Cc1nc2n(c(=O)c1CCN1CCC(c3noc4cc(F)ccc34)CC1)CCCC2OC(=O)NCCOCCOCCOCCOCCNC(=O)CCc1ccc2n1[B-](F)(F)[N+]1=C(c3ccc[nH]3)C=CC1=C2 (stereo not drawn) : provide NanoBRET Fold Response
0.88

Note: attention shifts to another entry.
Identify the reported NanoBRET Fold Response for the following entry. `CC(C)N(CC[C@H](c1ccccc1)c1cc(CCNC(=O)CCOCCOCCOCCOCCNC(=O)CCc2ccc3n2[B-](F)(F)[N+]2=C(c4ccc[nH]4)C=CC2=C3)ccc1O)C(C)C`
1.23

====

Target: SSTR4 (Homo sapiens)
Construct: purchased Promega (in-house HiBiT-GPCR construct library, NanoBRET)
Sequence (P31391 whole entry): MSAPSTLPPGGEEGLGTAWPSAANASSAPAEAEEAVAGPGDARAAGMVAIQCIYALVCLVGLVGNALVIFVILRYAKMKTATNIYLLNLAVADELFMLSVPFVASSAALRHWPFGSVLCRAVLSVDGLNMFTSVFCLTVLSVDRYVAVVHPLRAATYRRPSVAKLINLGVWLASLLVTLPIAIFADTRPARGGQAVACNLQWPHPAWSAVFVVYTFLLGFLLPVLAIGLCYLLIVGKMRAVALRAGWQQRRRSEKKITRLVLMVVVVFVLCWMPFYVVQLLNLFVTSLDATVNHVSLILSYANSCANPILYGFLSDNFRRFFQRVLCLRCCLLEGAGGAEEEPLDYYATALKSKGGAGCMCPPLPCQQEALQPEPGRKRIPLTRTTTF
Test: NanoBRET screen HiBiT-SSTR4 in HEK293
Type: binding
Details: SSTR4; tracer 0.1μM
Description: Each tracer candidate was screened across the entire library of HiBiT-GPCR constructs using NanoBRET as the detection modality. As depicted in Figure 4A, the specificity of interactions was evaluated through decrease in BRET due to competitive displacement of a bound tracer by excess parental compound. Each tracer was analyzed for binding to each HiBiT-GPCR fusion in the absence and in the presence of competing parental compound. […]
Endpoint Name: NanoBRET Fold Response
Respond using a number only.

Using known records, supply NanoBRET Fold Response for `COc1ccccc1N1CCN(CCCCN2C(=O)c3ccc(CNC(=O)CCOCCOCCOCCOCCNC(=O)CCc4ccc5n4[B-](F)(F)[N+]4=C(c6ccc[nH]6)C=CC4=C5)cc3C2=O)CC1`
1.02

Tell us which NanoBRET Fold Response value is on record for O=C(CCc1ccc2n1[B-](F)(F)[N+]1=C(c3ccc[nH]3)C=CC1=C2)NCc1ccc(C(=O)NCCOCCC(=O)N[C@@H]2CC[C@@]3(O)[C@H]4Cc5ccc(O)c6c5[C@@]3(CCN4CC3CC3)[C@H]2O6)cc1 [Naltrexone-3-NB590]
0.99

// Input: `CCCn1c(=O)c2[nH]c(-c3ccc(OCC(=O)NCCNC(=O)CCOCCNC(=O)c4ccc(CNC(=O)CCc5ccc6n5[B-](F)(F)[N+]5=C(c7ccc[nH]7)C=CC5=C6)cc4)cc3)nc2n(CCC)c1=O` . Output its NanoBRET Fold Response only.
1.01

# input for lookup
Give NanoBRET Fold Response for `O=C(CCOCCOCCOCCOCCNC(=O)CCc1ccc2n1[B-](F)(F)[N+]1=C(c3ccc[nH]3)C=CC1=C2)NCCCN1CCN(C2=Nc3ccccc3Oc3ccc(Cl)cc32)CC1`
1.00

Origin of measurements: paper PMC8151276
